Test: gradient 5% acetonitrile 3 min, to 50% in 2 min, to 85% in 15 min, held 3 min, 100 µL/min
Details: column: Zorbax Extend-C18 2.1 x 50 mm; eluents: water / acetonitrile, 0.1% formic acid
So I've got a bunch of compounds here, and I need their RP-LC retention time values.
Give bare numbers, in s.

>  <COMPOUND>
COc1ccc(N2CC(c3noc(-c4cccc(OC(F)(F)F)c4)n3)CC2=O)cc1 (stereo not drawn)

>  <UNITS>
s

>  <RP-LC retention time>
1050

$$$$
>  <COMPOUND>
Cc1cccc(-c2noc(C3CC(=O)N(c4ccc5c(c4)OCCO5)C3)n2)c1 (stereo not drawn)

>  <UNITS>
s

>  <RP-LC retention time>
980

$$$$
>  <COMPOUND>
CCOCC(=O)N1CC(F)(F)C[C@H]1c1nc(COC)no1

>  <UNITS>
s

>  <RP-LC retention time>
675

$$$$
>  <COMPOUND>
CCc1ccc(Nc2c(C(=O)N3CCOCC3)cnc3nc(C)ccc23)cc1

>  <UNITS>
s

>  <RP-LC retention time>
601

$$$$
>  <COMPOUND>
CCCNc1cc(N2CCC(CCC(=O)N3CCCN(c4ncccn4)CC3)CC2)ncn1

>  <UNITS>
s

>  <RP-LC retention time>
573

$$$$

Take each entry in turn and give its RP-LC retention time.
1. COc1ccc(-n2ccn3cc(-c4ccc(OC)c(OC)c4)nc3c2=O)cc1
2. CCc1nnc(-c2cccn2CC(=O)Nc2cc(OC)cc(OC)c2)o1
3. CC(C)CN1CCn2cc(C(=O)NCc3cc(F)ccc3F)nc2C1
4. COCCN1C(=O)[C@H]2CN(Cc3cccc(C(F)(F)F)c3)C[C@H]2C1=O
5. Cc1ccc(C(=O)NC2CCCCCCC2)cc1NC(=O)C1=CSCCO1
6. CCCn1cc(S(=O)(=O)NCc2ccccc2F)c2cccnc21

Result:
1. 723
2. 787
3. 608
4. 694
5. 949
6. 861

Take each entry in turn and give its RP-LC retention time.
1. CC(C)c1noc(-c2cccnc2-n2cnc(C(=O)Nc3ccc(F)cc3)c2)n1
2. Cc1cc(-c2ccc3c(c2)CCN3C(=O)c2cccc(NC(=O)c3ccco3)c2)on1
3. CNC(=O)Oc1ccc(N(C)C)cc1C(C)C
4. COCCN1C(=O)c2ccccc2C(C(=O)NCCc2ccc(F)cc2)C12CCCC2 (stereo not drawn)

Result:
1: 890; 2: 841; 3: 642; 4: 874

Take each entry in turn and give its RP-LC retention time.
1. O=C1NCCOCCN(C(=O)Nc2ccccc2)[C@@H]2CCCC[C@H]12
2. CCOc1ccc(C(=O)N2CCCC(c3nnc(-c4ccccc4)o3)C2)cc1 (stereo not drawn)
3. CC(C)C(=O)N1CCc2[nH]nc(C(=O)NCCCc3ccccc3)c2C1

Result:
[741, 892, 756]

---

Test: gradient 5% acetonitrile 3 min, to 50% in 2 min, to 85% in 15 min, held 3 min, 100 µL/min
Details: column: Zorbax Extend-C18 2.1 x 50 mm; eluents: water / acetonitrile, 0.1% formic acid
So I've got a bunch of compounds here, and I need their RP-LC retention time values.
Numbers only, in s.

For orientation, consider the following solved cases.
>  <COMPOUND>
c1cc(CN2CCCCC2c2nncn2CC2CC2)cs1 (centres undefined)

>  <RP-LC retention time [s]>
559

$$$$
>  <COMPOUND>
CCOC(=O)c1c(S(=O)(=O)N2CCC(C(=O)Nc3ccc(C)c(C)c3)CC2)c(C)n(CC)c1C

>  <RP-LC retention time [s]>
975

$$$$

Take each entry in turn and give its RP-LC retention time.
1. Cc1ccc(-c2ccc(-n3nc(C)c(S(=O)(=O)NCCN4CCOCC4)c3C)nn2)cc1C
2. CCc1noc(-c2cnc3nc(C)ccc3c2NC(C)c2ccc(F)cc2)n1 (centres undefined)

Result:
[702, 798]
